System: ESBL-positive Klebsiella pneumoniae J 14368/08
CONDITION CONTEXT: 24 h

{"columns": ["SMILES RECORD", "TARGET OF ASSAY", "MIC KP-E 24 h"],
 "data": [
  ["O=C(O)c1ccc(N=Cc2cccc(Cl)c2O)cc1", "ESBL-positive Klebsiella pneumoniae J 14368/08", ">500 µM"],
  ["O=C(O)c1ccc(N=Cc2cc(Cl)cc(Cl)c2O)cc1", "ESBL-positive Klebsiella pneumoniae J 14368/08", ">500 µM"],
  ["O=C(O)c1ccc(N=Cc2cc(Cl)cc(Br)c2O)cc1", "ESBL-positive Klebsiella pneumoniae J 14368/08", "500 µM"],
  ["COc1ccccc1C=Nc1ccc(C(=O)O)cc1", "ESBL-positive Klebsiella pneumoniae J 14368/08", ">500 µM"],
  ["O=C(O)c1ccc(N=Cc2cc([N+](=O)[O-])ccc2O)cc1", "ESBL-positive Klebsiella pneumoniae J 14368/08", ">500 µM"],
  ["COc1ccc(O)c(C=Nc2ccc(C(=O)O)cc2)c1", "ESBL-positive Klebsiella pneumoniae J 14368/08", ">500 µM"],
  ["Nc1ccc(C(=O)O)cc1", "ESBL-positive Klebsiella pneumoniae J 14368/08", ">500 µM"],
  ["O=C(O)c1ccc(N=Cc2cc(F)ccc2O)cc1", "ESBL-positive Klebsiella pneumoniae J 14368/08", ">500 µM"],
  ["O=C(O)c1ccc(N=Cc2cc(Cl)ccc2O)cc1", "ESBL-positive Klebsiella pneumoniae J 14368/08", ">500 µM"],
  ["O=C(O)c1ccc(N=Cc2ccc(O)cc2)cc1", "ESBL-positive Klebsiella pneumoniae J 14368/08", ">500 µM"],
  ["O=C(O)c1ccc(N=Cc2ccccc2O)cc1", "ESBL-positive Klebsiella pneumoniae J 14368/08", ">500 µM"]
]}

====

System: Mycobacterium kansasii 235/80
MEASUREMENT DESCRIPTION: Antimycobacterial micromethod in Šula's medium, M. kansasii 235/80
Type: cell-based
CONDITION CONTEXT: 235/80, 504 h, 21 days incubation at 37 °C, read-out: MIC M. kansasii 235/80 21 d
OBSERVABLE: MIC (µM)

{"columns": ["COMPOUND", "UNIT LABEL", "RELATION SYMBOL", "VALUE"],
 "data": [
  ["Nc1ccc(C(=O)O)cc1", "µM", ">", 1000],
  ["O=C(O)c1ccc(N=Cc2cc([N+](=O)[O-])ccc2O)cc1", "µM", "=", 500],
  ["O=C(O)c1ccc(N=Cc2ccc([N+](=O)[O-])o2)cc1", "µM", "=", 250],
  ["O=C(O)c1ccc(N=Cc2cc(I)cc(I)c2O)cc1", "µM", "=", 500],
  ["O=C(O)c1ccc(N=Cc2cc(Cl)ccc2O)cc1", "µM", "=", 500],
  ["O=C(O)c1ccc(N=Cc2ccc(Cl)cc2O)cc1", "µM", "=", 500],
  ["O=C(O)c1ccc(N=Cc2cccc(Cl)c2O)cc1", "µM", "=", 500],
  ["COc1ccc(O)c(C=Nc2ccc(C(=O)O)cc2)c1", "µM", "=", 500],
  ["O=C(O)c1ccc(N=Cc2ccc(O)cc2)cc1", "µM", ">", 1000],
  ["O=C(O)c1ccc(NCc2ccccc2O)cc1 [1u, 4-[(2-Hydroxybenzyl)amino]benzoic acid]", "µM", "=", 1000],
  ["O=C(O)c1ccc(N=Cc2cc(Br)ccc2O)cc1", "µM", "=", 500],
  ["O=C(O)c1ccc(N=Cc2cc(Cl)cc(I)c2O)cc1", "µM", "=", 500],
  ["CC(C)(C)c1ccc(O)c(C=Nc2ccc(C(=O)O)cc2)c1", "µM", "=", 250],
  ["O=C(O)c1ccc(N=Cc2cc(O)ccc2O)cc1", "µM", "=", 1000],
  ["NNC(=O)c1ccncc1 [INH, isoniazid, reference compound]", "µM", ">", 250],
  ["O=C(O)c1ccc(N=Cc2cc(Cl)cc(Cl)c2O)cc1", "µM", "=", 500],
  ["O=C(O)c1ccc(N=Cc2ccccc2O)cc1", "µM", ">", 1000],
  ["O=C(O)c1ccc(N=Cc2cc(Cl)cc(Br)c2O)cc1", "µM", "=", 500],
  ["O=C(O)c1ccc(N=Cc2c(O)cccc2Cl)cc1", "µM", "=", 500],
  ["Cc1ccc(O)c(C=Nc2ccc(C(=O)O)cc2)c1", "µM", "=", 500],
  ["COc1ccccc1C=Nc1ccc(C(=O)O)cc1", "µM", ">", 1000],
  ["O=C(O)c1ccc(N=Cc2cc(F)ccc2O)cc1", "µM", "=", 500],
  ["O=C(O)c1ccc(N=Cc2cc(I)ccc2O)cc1", "µM", "=", 250]
]}

====

System: Lichtheimia corymbifera 272
MEASUREMENT DESCRIPTION: Antifungal microdilution broth method, L. corymbifera
Format: cell-based
CONDITION CONTEXT: 48 h, read-out: MIC LC 48 h
OBSERVABLE: MIC

{"columns": ["MOLECULE", "VALUE"],
 "data": [
  ["Cc1ccc(O)c(C=Nc2ccc(C(=O)O)cc2)c1", "> 125 µM"],
  ["O=C(O)c1ccc(NCc2ccccc2O)cc1 [1u, 4-[(2-Hydroxybenzyl)amino]benzoic acid]", "> 500 µM"],
  ["O=C(O)c1ccc(N=Cc2ccccc2O)cc1", "> 500 µM"],
  ["O=C(O)c1ccc(N=Cc2cc(F)ccc2O)cc1", "> 500 µM"],
  ["O=C(O)c1ccc(N=Cc2cc(Cl)ccc2O)cc1", "> 125 µM"],
  ["O=C(O)c1ccc(N=Cc2ccc([N+](=O)[O-])o2)cc1", "> 500 µM"],
  ["O=C(O)c1ccc(N=Cc2cc(Cl)cc(Cl)c2O)cc1", "500 µM"],
  ["Nc1ccc(C(=O)O)cc1", "> 500 µM"],
  ["O=C(O)c1ccc(N=Cc2cc(Cl)cc(Br)c2O)cc1", "500 µM"],
  ["O=C(O)c1ccc(N=Cc2ccc(Cl)cc2O)cc1", "> 500 µM"],
  ["O=C(O)c1ccc(N=Cc2cc(Br)ccc2O)cc1", "> 250 µM"]
]}

====

Tested on: Candida tropicalis 156
MEASUREMENT DESCRIPTION: Antifungal microdilution broth method, C. tropicalis
Assay type: cell-based
CONDITION CONTEXT: 48 h, read-out: MIC CT 48 h
Below, each entry is listed with its recorded MIC.

{"columns": ["COMPOUND", "RELATION SYMBOL", "MIC (µM)"],
 "data": [
  ["Cc1ccc(O)c(C=Nc2ccc(C(=O)O)cc2)c1", ">", 125],
  ["O=C(O)c1ccc(N=Cc2cc(Br)ccc2O)cc1", "=", 125],
  ["O=C(O)c1ccc(N=Cc2cc(I)ccc2O)cc1", "=", 125],
  ["O=C(O)c1ccc(N=Cc2cc(Cl)ccc2O)cc1", "=", 125],
  ["Nc1ccc(C(=O)O)cc1", ">", 500],
  ["COc1ccccc1C=Nc1ccc(C(=O)O)cc1", ">", 500],
  ["O=C(O)c1ccc(N=Cc2ccc(O)cc2)cc1", ">", 500],
  ["O=C(O)c1ccc(N=Cc2cc(O)ccc2O)cc1", ">", 500],
  ["O=C(O)c1ccc(N=Cc2ccc([N+](=O)[O-])o2)cc1", "=", 250],
  ["O=C(O)c1ccc(N=Cc2cc(I)cc(I)c2O)cc1", "=", 15.6],
  ["O=C(O)c1ccc(N=Cc2cc(Cl)cc(Cl)c2O)cc1", "=", 250],
  ["O=C(O)c1ccc(N=Cc2cc(F)ccc2O)cc1", ">", 500],
  ["O=C(O)c1ccc(N=Cc2cc(Cl)cc(I)c2O)cc1", "=", 31.2],
  ["O=C(O)c1ccc(N=Cc2cc(Cl)cc(Br)c2O)cc1", "=", 62.5],
  ["O=C(O)c1ccc(N=Cc2cccc(Cl)c2O)cc1", "=", 62.5],
  ["O=C(O)c1ccc(N=Cc2ccc(Cl)cc2O)cc1", ">", 500],
  ["COc1ccc(O)c(C=Nc2ccc(C(=O)O)cc2)c1", "=", 500],
  ["O=C(O)c1ccc(NCc2ccccc2O)cc1 [1u, 4-[(2-Hydroxybenzyl)amino]benzoic acid]", ">", 500],
  ["O=C(O)c1ccc(N=Cc2c(O)cccc2Cl)cc1", "=", 125],
  ["O=C(O)c1ccc(N=Cc2cc([N+](=O)[O-])ccc2O)cc1", ">", 500],
  ["O=C(O)c1ccc(N=Cc2ccccc2O)cc1", ">", 500],
  ["CC(C)(C)c1ccc(O)c(C=Nc2ccc(C(=O)O)cc2)c1", ">", 500]
]}

Where these numbers come from: paper PMC7023430
